test system: Septoria tritici; assay: In vivo preventive test on Septoria tritici (leaf spot on wheat); details: 500 ppm; wheat plants sprayed 24 hours before contamination; grading 21 to 28 days after contamination vs control plants
The following compounds are listed with their measured % of efficacy (protection) values.

{"columns": ["COMPOUND", "% of efficacy (protection)"],
 "data": [
  ["C#Cc1cnc2ccc(C3=NOC(C=C)(C(=O)NCC4COC(C)(C)O4)C3)cc2c1 (centres unmarked)", "100%"],
  ["C#Cc1cc2cc(C3=NOC(C)(C(=O)NCc4cn(CC)nc4C)C3)ccc2nc1C#N (centres unmarked)", "75%"],
  ["CCn1cc(CNC(=O)C2(Cc3ccccc3)CC(c3ccc4ncc(Br)cc4c3)=NO2)c(C)n1 (centres unmarked)", "70%"],
  ["CC(C)NC(=O)C1(C)CC(c2ccc3ncc(I)cc3c2)=NO1 (centres unmarked)", "100%"],
  ["CCn1cc(CNC(=O)C2(C)CC(c3ccc4ncc(C#C[Si](C)(C)C)cc4c3)=NO2)c(C)n1 (centres unmarked)", "93%"],
  ["C#Cc1cnc2ccc(C3=NOC(C)(C(=O)NC4COC4)C3)cc2c1 (centres unmarked)", "93%"],
  ["C#Cc1cnc2ccc(C3=NOC(OC)(C(=O)NC(C)(C)c4ccon4)C3)cc2c1 (centres unmarked)", "97%"],
  ["C#Cc1cnc2ccc(C3=NOC(C)(C(=O)NC)C3)cc2c1 (centres unmarked)", "100%"]
]}
